biological target: Cytochrome P450 2C9 (Homo sapiens) (UniProt P11712); assay: Cytochrome panel assay with activity outcomes; settings: recombinant CYP, pro-luciferin dealkylation, luminescence, p450-cyp2c9; series mostly up to 57.1 µM; note: % is set by controls: 0 for no effect and ±100 for the full control effect
Sequence (P11712 whole entry, looked up): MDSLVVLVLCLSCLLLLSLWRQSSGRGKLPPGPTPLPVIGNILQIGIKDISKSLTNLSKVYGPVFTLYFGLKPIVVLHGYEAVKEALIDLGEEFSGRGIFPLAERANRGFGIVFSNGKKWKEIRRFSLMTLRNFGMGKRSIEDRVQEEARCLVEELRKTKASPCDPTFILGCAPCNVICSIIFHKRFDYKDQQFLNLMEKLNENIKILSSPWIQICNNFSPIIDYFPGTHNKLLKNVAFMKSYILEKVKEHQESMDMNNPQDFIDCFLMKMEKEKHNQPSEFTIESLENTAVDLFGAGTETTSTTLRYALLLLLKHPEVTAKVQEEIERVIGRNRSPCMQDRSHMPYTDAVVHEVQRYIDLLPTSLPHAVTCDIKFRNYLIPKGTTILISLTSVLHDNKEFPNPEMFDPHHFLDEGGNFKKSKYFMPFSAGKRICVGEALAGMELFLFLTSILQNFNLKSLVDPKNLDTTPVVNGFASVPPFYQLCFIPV
In all, about 16,000 compounds went through this assay and about 4,000 (25%) were called active. Not shown: some 26% with an inconclusive outcome. These entries were drawn from the full list.
What activity, negative = inhibition was measured for each of the following?

Challenge: Look up activity, negative = inhibition for this molecule: "Cc1cnc(CNc2ncncc2-c2cccc(C#N)c2)cn1"
Response given: -1.84% [at 2.29 µM] (inactive)

Challenge: Reported activity, negative = inhibition for "Cc1ccc(S(=O)(=O)Oc2cc(N)c3c(n2)CCC3)cc1" : what is it?
Response given: 20.5% [at 11.4 µM] (inactive)

Challenge: activity, negative = inhibition lookup needed for "CC(=O)OC[C@@H]1O[C@H](C/C=N\O[C@@H]2O[C@H](COC(C)=O)[C@@H](OC(C)=O)[C@H](OC(C)=O)[C@H]2OC(C)=O)C=C[C@@H]1OC(C)=O" , thanks.
Response given: 4.96% [at 11.4 µM] (inactive)

Challenge: Which activity, negative = inhibition value belongs to "O=C(O)c1ccc(C(=O)c2ccccc2C(=O)O)cc1C(=O)O" ?
Response given: -6.86% [at 11.4 µM] (inactive)

Challenge: Please report the recorded activity, negative = inhibition for "COc1ccccc1CNc1ncnc2ccc(-c3ccccc3CN(C)C)cc12" .
Response given: -2.92% [at 2.29 µM] (inactive)

Challenge: What does the record list as activity, negative = inhibition for "CS(=O)(=O)Nc1cccc(-c2nc(Nc3ccccc3)c3ccccc3n2)c1" ?
Response given: -28.2% [at 2.29 µM] (inactive)

Challenge: What measured activity, negative = inhibition goes with "CCN=C(N)CSS(=O)(=O)O" ?
Response given: -1.49% [at 11.4 µM] (inactive)

Challenge: Requested field: activity, negative = inhibition. Item: "CN(C)C(=O)c1ccc(-c2nc(-n3ccnc3)c3ccccc3n2)cc1"
Response given: -0.507% [at 2.29 µM] (inactive)

Challenge: Given the molecule "O=C(NCc1cccnc1)[C@@H]1[C@@H](C(=O)O)[C@H]2CC[C@@H]1O2" , what is its reported activity, negative = inhibition?
Response given: -5.99% [at 11.4 µM] (inactive)

Challenge: What does the data say about its activity, negative = inhibition? Entry: "O=C(O)c1ccc(OCc2ccccc2)c(Cl)c1"
Response given: -17.5% [at 11.4 µM] (inactive)

Challenge: Which activity, negative = inhibition is reported for this molecule? "O=C(O)/C=C(/C(=O)O)[C@]12CCN3CC4=CCO[C@@H]5CC(=O)N[C@@H]1[C@H]5[C@H]4C[C@H]32"
Response given: -2.53% [at 11.4 µM] (inactive)

Challenge: What measured activity, negative = inhibition goes with "O=C(O)[C@@H](O)c1ccc(F)cc1" ?
Response given: -3.58% [at 11.4 µM] (inactive)

Challenge: Given "N[C@@H](Cc1cccc([N+](=O)[O-])c1)C(=O)O" , state its recorded activity, negative = inhibition.
Response given: 16.8% [at 11.4 µM] (inactive)

Challenge: Entry "Cc1ccccc1-c1nc(-n2ccnc2)c2ccccc2n1" : reported activity, negative = inhibition = ?
Response given: -7.55% [at 2.29 µM] (inactive)

Challenge: Please look up its activity, negative = inhibition: "CCOC(=O)N/N=C1/C[C@@H](O)[C@@H](O)[C@@H]2[C@@H]3C(=O)N(C4CCCCC4)C(=O)[C@H]3CC[C@H]12"
Response given: -8.52% [at 11.4 µM] (inactive)

Challenge: Which activity, negative = inhibition reading was recorded for the molecule "O=C1CC[C@H](NC(=O)c2ccccc2)C(=O)N1" ?
Response given: 5.14% [at 11.4 µM] (inactive)

Challenge: Entry "c1cncc(CNCc2cccnc2)c1" has what activity, negative = inhibition?
Response given: 16% [at 11.4 µM] (inactive)

Challenge: State the recorded activity, negative = inhibition for this entry: "Cc1ccc(S(=O)(=O)Oc2cc(S(=O)(=O)O)cc3cc(S(=O)(=O)O)cc(N)c23)cc1"
Response given: -5.74% [at 11.4 µM] (inactive)

Challenge: Could you tell me which activity, negative = inhibition is on file for "COc1ccccc1-c1ccc2ncnc(NCc3cnc(C)cn3)c2c1" ?
Response given: -18.5% [at 2.29 µM] (inactive)

Challenge: # query: activity, negative = inhibition of entry "C[C@@H](CNC(N)=O)NC(N)=O"
Response given: 20.8% [at 11.4 µM] (inactive)

Challenge: # query: activity, negative = inhibition of entry "Cc1cnc(CNc2ncnc3ccc(-c4ccccc4C)cc23)cn1"
Response given: 0.0371% [at 2.29 µM] (inactive)

Challenge: Would you mind telling me what activity, negative = inhibition value was observed for "O=C(O)C[C@H](Cc1ccccc1Cl)C(=O)O" ?
Response given: 2.18% [at 11.4 µM] (inactive)

Challenge: Any idea what its activity, negative = inhibition is? The molecule is "Cc1cnc(CNc2cc(-c3cccnc3)ncn2)cn1"
Response given: 6.31% [at 2.29 µM] (inactive)

Challenge: Name the reported activity, negative = inhibition value associated with the molecule "O=C(O)CC[C@@H](C(=O)O)N1C(=O)[C@@H]2[C@@H]3CC[C@H](C3)[C@@H]2C1=O"
Response given: 12.5% [at 11.4 µM] (inactive)

Challenge: Query: activity, negative = inhibition; subject: "COc1ccccc1-c1nccc(NCc2ccccc2)n1"
Response given: 4.32% [at 2.29 µM] (inactive)

Challenge: Bench note: what activity, negative = inhibition did "O=[N+]([O-])c1cc(Cl)cc2c1nc(NCCO)c1ccccc12" show?
Response given: -0.585% [at 11.4 µM] (inactive)

Challenge: Reported activity, negative = inhibition for "COc1ccc(CNc2ncnc3ccc(-c4ccc(C(=O)N(C)C)cc4)cc23)c(OC)c1" : what is it?
Response given: 1.99% [at 2.29 µM] (inactive)

Challenge: Form field: reported activity, negative = inhibition of "Cn1c(N)nc2c(nc(OCc3ccccc3)n2[C@@H]2O[C@H](CO)[C@@H](O)[C@@H]2O)c1=O"
Response given: 1.04% [at 11.4 µM] (inactive)

Challenge: Suppose we examine the molecule "Cc1ccccc1-c1cc(N(C)Cc2ccco2)ncn1" ; what activity, negative = inhibition value has been reported?
Response given: -5.66% [at 2.29 µM] (inactive)

Challenge: Give its activity, negative = inhibition value. Item: "COc1ccccc1-c1nccc(-n2ccnc2)n1"
Response given: 6.88% [at 2.29 µM] (inactive)

Challenge: Record request: activity, negative = inhibition value, item "Clc1ccccc1NN(Cc1ccccn1)c1ccccc1Cl"
Response given: -64.2% [at 11.4 µM] (inactive)

Challenge: What value of measured activity, negative = inhibition is listed for "NC(=S)SCCC(=O)O" ?
Response given: -6.98% [at 11.4 µM] (inactive)

Challenge: Looking for the measured activity, negative = inhibition of "COc1ccccc1-c1ccc2ncnc(NCc3cccnc3)c2c1" , can you help?
Response given: -19.3% [at 2.29 µM] (inactive)

Challenge: So what's the measured activity, negative = inhibition for this one? "Nc1ccccc1N=Nc1c(S(=O)(=O)O)cc2cc(S(=O)(=O)O)cc(O)c2c1O"
Response given: -15.1% [at 11.4 µM] (inactive)

Challenge: Would you kindly share the measured activity, negative = inhibition for "COc1ccccc1-c1cncnc1N1CCN(C)CC1" ?
Response given: 3.41% [at 2.29 µM] (inactive)

Challenge: What does the data say about its activity, negative = inhibition? Entry: "CC(C)=NNc1ncnc2nc[nH]c12"
Response given: -11.9% [at 11.4 µM] (inactive)

Challenge: I'd like to know its activity, negative = inhibition. The molecule in question is "C[C@H]1[C@H](C)OC(=O)C[C@H](O)C[C@H](O)C[C@H](O)CC[C@H](O)[C@H](O)CC(=O)C[C@H](O)[C@H](C(=O)O)[C@H](O)C[C@H](O[C@@H]2O[C@@H](C)[C@H](O)[C@@H](N)[C@@H]2O)C=CC=CC=CC=CCCC=CC=C[C@@](C)(O)[C@H]1O"
Response given: 14.1% [at 11.4 µM] (inactive)

Challenge: Value lookup for activity, negative = inhibition; key = "CNc1ccnc(-c2ccccc2CN(C)C)n1"
Response given: 0.444% [at 2.29 µM] (inactive)

Challenge: GET /values?readout=activity, negative = inhibition&item= "CN(C)c1ccc(-c2ccc3ncnc(NC4CC4)c3c2)cc1"
Response given: 4.64% [at 2.29 µM] (inactive)

Challenge: Given the molecule "CNc1nc(-c2ccoc2)nc2ccccc12" , what is its reported activity, negative = inhibition?
Response given: 13% [at 2.29 µM] (inactive)

Challenge: Need activity, negative = inhibition of "Cc1ccccc1-c1cncnc1NC1CCNCC1" , thanks.
Response given: 1.54% [at 2.29 µM] (inactive)

Challenge: Item "COCCNc1nc(-c2ccccc2Cl)nc2ccccc12" has what recorded activity, negative = inhibition?
Response given: 0.695% [at 2.29 µM] (inactive)

Origin of measurements: PubChem BioAssay AID1851
